Listing of entries alongside the reported transcriptional activation domain activity.
System: Saccharomyces cerevisiae
Assay: transcriptional activation domain activity (GFP:mCherry ratio, weighted mean of sorted bins, harmonized to initial dataset scale) (arbitrary fluorescence ratio units); higher = stronger transcriptional activation
Details: beta-estradiol 1 µM; induction time 4 h
Measure name: transcriptional activation domain activity

1. ANHQVYVDWWYTWCLTYFMETHRDVCIVLKKSLKWIPVAGWGMQFFKFIFLAR ... 39400
2. RYLRHIKNIVFVLVLLNYWSKLYNTVLIGGPVRAVHDFKTYLIRIVFRQLRRL ... 47300
3. IFFSQFGRYWIVFPGILFLTSVALSLILIVMLCIPGINLWTTISINLAIPYWA ... 27300
4. KASKSKKRKHHHHKSAVSSPEASDADTASQSSKRSKKSKRRHADADARAAANG ... 36700
5. IGQFRFLQRLVLVHGRWSYRRLAETISNFFYKNMIWTFSIFWYQVFCNFDITY ... 24600
6. LLLHYKHEEFVGHEETDFVVMGFTKLLLCCISSLKSFKKPLNAGPLIERIFRK ... 84700
7. MAGVGYYDLKQLMMVFLLVWLLAICVGPWYQGCFSPSFLLFCFYQPYIFISFL ... 52900
8. NTMQFSMNLGNSTVSGPFSGLVNGLTPKGTNMEPSLWASWSYYALWLPTWGTT ... 52100
9. MFFRRFLMYFVELTGIMYCLIVFFMVSLFLLYRRNMIEEQFPNKTIILYGKRV ... 58500

###

System: Saccharomyces cerevisiae
Experiment: transcriptional activation domain activity (GFP:mCherry ratio, weighted mean of sorted bins, harmonized to initial dataset scale) (arbitrary fluorescence ratio units); higher = stronger transcriptional activation
Settings: beta-estradiol 1 µM; induction time 4 h
Measure name: transcriptional activation domain activity

1) MIPLLSFYYYFYISTCKTELLFSPFIFYFLLFLYIYIKIYTYFLHTPFLLVFE ... 47700
2) MGNMGTCSFFFFFCWSSFFLCYFCVFPCVLSFQVEGLEAIFLPFTFFPFWFSL ... 57300
3) EAKAEEAAPTEAPAADAPAAEPAAEASATEEAKPAEAAKEEKKEDRPKSPSLL ... 8420
4) FLDVSTSYDIGNPPSISDDLLDLSIFTAQNFQSPSIDFRRVKLMHDFLDVSRF ... 125000
5) SAKEEPGAAETDADTDPEPAAGKKRKRQEDKGEAQEGGSGKKSVGGKKAKQAE ... 19200
6) RYIATGRGFATTRISFSILFSRFAGPSIYLGMRTLLMLLYVTLSFWTPYLIYF ... 54700
7) RNSSLEEEDQVVAEGEVVGAAEEEGGEGEGREEVVVTEGREDMAVVGMAGMAD ... 35400
8) KYAYGCDELIFNPLVHWWKMGPINKQLRTFVWSDAPVHYKVTMLSYMFSYYGI ... 50100
9) SFSAYFIACCVVIHVTQLVGSPLYLFNKPLYYAYMARTKQSFGVLVTTITQWW ... 68900
10) LYFMPVRWYTYHKIGFHYFLADLCYFVNFLMVLCIWFFPNSKRLFISTFCLAF ... 72000
11) PASRGYDRDRDYRRSPSPRERRERDRSRDRDYDRPRSPAVRATLSSSPAPAAL ... 22600
12) MSRVLPEKLPLHLQAACLPQRDLLTALPVVALRCYTDGPQLLRGLVCCLCDMW ... 61600
13) LRGGYTCQLNGTPKNPDLQVWLQLNLIAYFSFLDTRACDGKTASITGSAEMPF ... 51900
14) MGRVVGVGSFYVWICHFFYIFSFFFSPMMNWTGSGLVGCVMALLYFILSFSFS ... 46200
15) DLAPVQPVQKQARRRSGPACEGCKARKTKCDGKRPTCGSCVDKRHCVYADASV ... 21900
16) VHNNSNNSNNSNISASDYTVANNSTSNNNNNNNNNNNNNNNIHPNQFTAAANM ... 39200
17) IMYIICLTIAPSFLCGVLYVSLSRFIAALGHQYSLVPPWLISWVFIFGDFLSL ... 62600
18) HPNDAGDENDGEGESAAPAKEKEPAGTAATPASYQLQSIACHKGTSIHAGHYV ... 33100
19) MISLFFFLFLYHIYVFLLLLLLYFLPSLPYPPIYTLYIVSLIIPHLVYLLQNS ... 31400
20) TMSTVMVVGSDDKKVKEVGEALKSKLGVKGGGKGSRWSGKFTGVWKDSREGAL ... 27000

###

Tested on: Saccharomyces cerevisiae
Experiment: transcriptional activation domain activity (GFP:mCherry ratio, weighted mean of sorted bins, harmonized to initial dataset scale) (arbitrary fluorescence ratio units); higher = stronger transcriptional activation
Settings: beta-estradiol 1 µM; induction time 4 h
Measure name: transcriptional activation domain activity

1) PTRRSFSSAWFLCIRYFSLCSNIVVIVDTFGTFSYNVPMYGLSKKLLMWLACV ... 47900
2) MDELGKIAFGSIPPPQAEPNLIGDNFGIFVDDMFTAYEDPMAHWSFLFEDLFP ... 151000
3) AILLGEAYGYRILPFVPVWTIFATVNLAYAVCSTSWLLYWVYLVCCWPTLLIV ... 55500
4) AGNGWLLVGWFILHHFVVVSGILVAMLCLSFWDLWGSPGSPLLSRPWVAACFA ... 50500
5) HQLGLVMLGMRCDLMRWMVCMDGIEYAGDIVIYCPALLLQLQCIVHTYGWAAR ... 41700
6) MLILLLLLLLLLLLLLLLIMIMIMILMIFLLLFMILIFLLVIMREFCWLWVLW ... 44900
7) MVLLSRLIFVAVILSLTGCRSQLESRCMVFGYRRVLVVVVRAISSCAALLRCA ... 71100
8) IYVLHLFSTFPIFPLFPLFPIFLNFFIFLILILIFPIFPIFPIFPIFLIFPIF ... 52900
9) EVAEEAAAAAAPEKKTRRGASKKAAAEKAAAAEEEGEKAAQKAEKAAEKAAEK ... 33200
10) APSDTNGNGKRKQTKSRNGCTTCKAKRLKCDETKPHCKQCARRSVQCGGYRKE ... 39400
11) TPNNLTSFDDCHLIDGLELTYSDLLVLDDFLAFDFLGLDHFIFMVTPPWENVV ... 81000
12) MGLGFFSFFLSVFSFFLFPFFFFGCEFIYLFLVFWWRVDFSPMAERHSVEAGP ... 53000
13) MIKKISFFLYIFALRSSFFLFLFVLYFFFPLFFFFFFSFSFFFLLLVSVATLE ... 12200
14) SERSERRADERSSRNGPSEAERGSERERGGREKRGGDRESSRRERERGGEARE ... 17200
15) VEAAEPEIEVPNKDSRPSKRGRKEKVIEEEDSAPVDKPVSKGKKAAPVAKTAL ... 15300
16) VVGGQQKFGTKMVVESDKKCRLILLPRFAETGILVLVNMRTLAVKCVKFGTRG ... 19300
17) MRPLSWRLWRTGDSNRELLSHFLFYLGLFFFFREWLFLVLFFLFLLLLLPGVR ... 26600
18) EDEAQGEEGEKAKKSRKRKRDEAAEGGKQKKEKAPPKPRAKKGSAEPKPKKAA ... 25900
19) VVALVADPEFQRELAYVLCGQSILVRWPAKILNGLWLYCHLLQQAILPWFIFY ... 52600
20) EESLKHHEGINMVWRKFQSIFRIIGGIIYYEPIYRAFVRHVLHHLHLDNVLWV ... 64600

###

Tested on: Saccharomyces cerevisiae
Assay: transcriptional activation domain activity (GFP:mCherry ratio, weighted mean of sorted bins, harmonized to initial dataset scale) (arbitrary fluorescence ratio units); higher = stronger transcriptional activation
Conditions: beta-estradiol 1 µM; induction time 4 h
Listing of entries alongside the reported transcriptional activation domain activity.
Measure name: transcriptional activation domain activity

1) YADWLLEPEQNNGTWVADVLWPAINLDLQWISSHWNQSSWDLWWPPVWGGSYW ... 67800
2) VGISLFLIACKLYLTVYYNELLISNPASAKSIYKILEYVNIMVYVSKAFGMYQ ... 62800
3) WARNARKNKSTEEASAQEQRRGAQVIVIHPGSRFLRIGKASEVSPVTVLNVVA ... 55600
4) RGGRGRRNGGKERGKEKKGKKEEENDRRGKGKERKERRKNDGGKRREGREREK ... 47600
5) KGKGRREGGEGGEEREGNRERKRGRGREGKGGKERGNGRGKEGQRKEEREGKG ... 33500
6) MDYVWRRVRWIRVRKHMVFIATLLEPFTECMLVCLIGALSARHLFDIRLVVFY ... 49000
7) RGEGDSKSDGKSDGKSEDKAENKGEEAPLVSEKDLVILAEHDLNGRQIKNVIK ... 11000
8) GAGGAAGGAGAGAGTAATGGNAAGGKASATKPAAGAKSSPAAAAAAAGTRLTG ... 7150
9) MSGVGKLYRMGCWHGSHLPFIYFGHFILPFLLCLRPILSSVFFIYFFHLLCFF ... 47000
